System: HIF prolyl hydroxylase
Protocol Notes: Inhibition of the activity of HIF prolyl hydroxylase (VBC complex binding to hydroxylated peptide substrate)
Particulars: cell lysate containing prolyl hydroxylase, peptide biotin-DLDLEMLAPYIPMDDDFQL as substrate
Counter-ions that a name gives are not always drawn.
In this section, each of the compounds is paired with its reported log10(IC50).
Assay Metric: log10(IC50) (log10 of the value in µM)

Compound: O=c1c(-n2ccnn2)c[nH]n1-c1cc(C2CC2)ncn1 [Example 17, hydrochloride]
Recorded Result: -0.25
//
Compound: O=c1c(-n2cnc(C(F)(F)F)c2)c[nH]n1-c1ccc(CO)cn1 [Example 12]
Recorded Result: -0.12
//
Compound: CCc1cc(-n2[nH]cc(-n3cnc(C(F)(F)F)c3)c2=O)ncn1 [Example 60]
Recorded Result: 0.15
//
Compound: CC(C)(C)COc1ccc(-n2[nH]cc(-n3ccnn3)c2=O)nc1 [Example 85, hydrochloride]
Recorded Result: -0.72
//
Compound: CC(C)c1cn(-c2c[nH]n(-c3ccc(CO)cn3)c2=O)nn1 [Example 45]
Recorded Result: -0.11
//
Compound: CCSc1cc(-n2[nH]cc(-n3ccnn3)c2=O)ncn1 [Example 103, hydrochloride]
Recorded Result: -0.46
//
Compound: O=c1c(-n2ccnc2)c[nH]n1-c1cc(N2CCCCC2)ncn1 [Example 10]
Recorded Result: -0.30
//
Compound: Cc1cc(-c2c[nH]n(-c3ccccn3)c2=O)on1 [Example 50]
Recorded Result: 0.15
//
Compound: O=c1c(-n2ccnc2)c[nH]n1-c1cc(N2CC(O)C2)ncn1 [Example 101, hydrochloride]
Recorded Result: 0.23
//
Compound: Cc1cnc(-n2[nH]cc(-n3ccnc3)c2=O)cc1C [Example 91, hydrochloride]
Recorded Result: 0.45
//
Compound: COC1CCCN(c2cc(-n3[nH]cc(-n4ccnc4)c3=O)ncn2)C1 (centres unmarked) [Example 166]
Recorded Result: -0.16
//
Compound: O=c1c(-c2nnc(C(F)(F)F)s2)c[nH]n1-c1ccccn1 [Example 5]
Recorded Result: 0.08
//
Compound: O=c1c(-n2ccnn2)c[nH]n1-c1cc(C(F)(F)F)ccn1 [Example 83, hydrochloride]
Recorded Result: 0.28
//
Compound: O=c1c(-n2ccnn2)c[nH]n1-c1cc(N2CCOCC2)ncn1 [Example 72, hydrochloride]
Recorded Result: -0.31
//
Compound: Cc1cc(-n2[nH]cc(-n3ccnn3)c2=O)ncc1Br [Example 61]
Recorded Result: 0.04
//
Compound: CC1CCN(c2cc(-n3[nH]cc(-n4ccnn4)c3=O)ncn2)CC1 [Example 129]
Recorded Result: -0.44
//
Compound: Cc1cn(-c2c[nH]n(-c3cnccn3)c2=O)nn1 [Example 43]
Recorded Result: 0.26
//
Compound: O=c1c(-n2ccnn2)c[nH]n1-c1cc(N2CCSCC2)ncn1 [Example 113]
Recorded Result: -0.13
//
Compound: CC(C)(C)OC(=O)c1ccc(-n2[nH]cc(-n3ccnn3)c2=O)nc1 [Example 62, hydrochloride]
Recorded Result: -1.30
//
Compound: Cc1ccnc(-n2[nH]cc(-n3ccnn3)c2=O)c1 [Example 7, hydrochloride]
Recorded Result: -0.47
